Recorded values, source patent US20240016931A1.

Recorded IC50 values for a group of binders are listed next.
- tgt: T1, Fc-tagged human TSLP antigen (huTSLP-Fc) (human, biotin-labeled in the blocking assays)
- T1 construct: whole entry named; also called recombinant human TSLP-Fc
- assay-info: competition ELISA: blocks TSLP binding to TSLP receptor
Report the value in nM with no unit label.

Example binders with recorded IC50:
hu199-34 (antibody, human IgG1, kappa, V domains shown, IgG1-YTE, kappa) VH: EVQLVQSGAEVKKPGASVKVSCKASGYTFTTYWMHWVKQAPGQGLEWMGMIDPSDSETTLIQKFKDKVTLTVDKSTSTAYMELSSLRSEDTAVYYCARTLDGYYDYWGQGTTVTVSS VL: DIQMTQSPSSLSASVGDRVTITCRASENIYSYLAWYQQKPGKAPKLLIYFAKTLAEGVPSRFSGSVSGTDFTLTISSLQPEDFATYYCQHHYGTPWTFGGGTKVEIKR; 0.711
hu199-26 (antibody, human IgG1, kappa, V domains shown, IgG1-YTE, kappa) VH: EVQLVQSGAEVKKPGASVKVSCKASGYTFTTYWMHWVKQAPGQGLEWMGMIDPSDSETTLIQKFKDKVTMTVDKSTSTAYMELSSLRSEDTAVYYCARTLDGYYDYWGQGTTVTVSS VL: DIQMTQSPSSLSASVGDRVTITCRASENIYSYLAWYQQKPGKAPKLLVYFAKTLAEGVPSRFSGSGSGTDFTLTISSLQPEDFATYYCQHHYGTPWTFGGGTKVEIKR; 0.365
hu199-31 (antibody, human IgG1, kappa, V domains shown, IgG1-YTE, kappa) VH: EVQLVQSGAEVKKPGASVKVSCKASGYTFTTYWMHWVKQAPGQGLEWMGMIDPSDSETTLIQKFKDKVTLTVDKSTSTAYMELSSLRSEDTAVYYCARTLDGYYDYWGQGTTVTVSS VL: DIQMTQSPSSLSASVGDRVTITCRASENIYSYLAWYQQKPGKAPKLLIYFAKTLAEGVPSRFSGSGSGTDFTLTISSLQPEDFATYYCQHHYGTPWTFGGGTKVEIKR; 0.304

Lab note: measured IC50 of hu199-29 (antibody, human IgG1, kappa, V domains shown, IgG1-YTE, kappa) VH: EVQLVQSGAEVKKPGASVKVSCKASGYTFTTYWMHWVKQAPGQGLEWMGMIDPSDSETTLIQKFKDKVTMTVDKSTSTAYMELSSLRSEDTAVYYCARTLDGYYDYWGQGTTVTVSS VL: DIQMTQSPSSLSASVGDRVTITCRASENIYSYLAWYQQKPGKAPKLLVYFAKTLAEGVPSRFSGSVSGTDFTLTISSLQPEDFATYYCQHHYGTPWTFGGGTKVEIKR was 0.554

Lab note: measured IC50 of hu199-14 (antibody, human IgG1, kappa, V domains shown, IgG1-YTE, kappa) VH: EVQLVQSGAEVKKPGASVKVSCKASGYTFTTYWMHWVRQAPGQGLEWIGMIDPSDSETTLIQKFKDRATLTVDKSTSTAYMELSSLRSEDTAVYYCARTLDGYYDYWGQGTTVTVSS VL: DIQMTQSPSSLSASVGDRVTITCRASENIYSYLAWYQQKPGKAPKLLVYFAKTLAEGVPSRFSGSGSGTDFTLTISSLQPEDFATYYCQHHYGTPWTFGGGTKVEIKR was 0.311
